target: plasma purified human complement protein C3 (human) (UniProt P01024); experiment: cell-based or functional assay
Sequence (P01024 23-667, chain 1 of 2): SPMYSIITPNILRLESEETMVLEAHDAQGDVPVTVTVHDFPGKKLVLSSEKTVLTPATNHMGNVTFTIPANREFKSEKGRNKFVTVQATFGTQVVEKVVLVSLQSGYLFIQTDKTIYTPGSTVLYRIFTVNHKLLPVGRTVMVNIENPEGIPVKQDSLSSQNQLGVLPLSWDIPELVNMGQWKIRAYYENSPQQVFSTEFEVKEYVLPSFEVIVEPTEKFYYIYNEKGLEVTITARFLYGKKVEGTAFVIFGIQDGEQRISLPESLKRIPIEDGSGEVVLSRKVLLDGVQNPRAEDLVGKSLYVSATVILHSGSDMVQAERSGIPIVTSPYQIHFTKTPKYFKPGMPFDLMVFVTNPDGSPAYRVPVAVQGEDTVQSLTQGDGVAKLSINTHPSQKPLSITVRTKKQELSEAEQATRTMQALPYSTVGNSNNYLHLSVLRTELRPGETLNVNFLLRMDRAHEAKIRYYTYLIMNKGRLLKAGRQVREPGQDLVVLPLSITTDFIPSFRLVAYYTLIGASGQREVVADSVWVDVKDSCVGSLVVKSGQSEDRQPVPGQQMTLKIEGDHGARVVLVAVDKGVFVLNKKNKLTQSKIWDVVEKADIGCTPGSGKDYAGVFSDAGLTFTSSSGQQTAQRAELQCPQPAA
Sequence (P01024 672-1663, chain 2 of 2): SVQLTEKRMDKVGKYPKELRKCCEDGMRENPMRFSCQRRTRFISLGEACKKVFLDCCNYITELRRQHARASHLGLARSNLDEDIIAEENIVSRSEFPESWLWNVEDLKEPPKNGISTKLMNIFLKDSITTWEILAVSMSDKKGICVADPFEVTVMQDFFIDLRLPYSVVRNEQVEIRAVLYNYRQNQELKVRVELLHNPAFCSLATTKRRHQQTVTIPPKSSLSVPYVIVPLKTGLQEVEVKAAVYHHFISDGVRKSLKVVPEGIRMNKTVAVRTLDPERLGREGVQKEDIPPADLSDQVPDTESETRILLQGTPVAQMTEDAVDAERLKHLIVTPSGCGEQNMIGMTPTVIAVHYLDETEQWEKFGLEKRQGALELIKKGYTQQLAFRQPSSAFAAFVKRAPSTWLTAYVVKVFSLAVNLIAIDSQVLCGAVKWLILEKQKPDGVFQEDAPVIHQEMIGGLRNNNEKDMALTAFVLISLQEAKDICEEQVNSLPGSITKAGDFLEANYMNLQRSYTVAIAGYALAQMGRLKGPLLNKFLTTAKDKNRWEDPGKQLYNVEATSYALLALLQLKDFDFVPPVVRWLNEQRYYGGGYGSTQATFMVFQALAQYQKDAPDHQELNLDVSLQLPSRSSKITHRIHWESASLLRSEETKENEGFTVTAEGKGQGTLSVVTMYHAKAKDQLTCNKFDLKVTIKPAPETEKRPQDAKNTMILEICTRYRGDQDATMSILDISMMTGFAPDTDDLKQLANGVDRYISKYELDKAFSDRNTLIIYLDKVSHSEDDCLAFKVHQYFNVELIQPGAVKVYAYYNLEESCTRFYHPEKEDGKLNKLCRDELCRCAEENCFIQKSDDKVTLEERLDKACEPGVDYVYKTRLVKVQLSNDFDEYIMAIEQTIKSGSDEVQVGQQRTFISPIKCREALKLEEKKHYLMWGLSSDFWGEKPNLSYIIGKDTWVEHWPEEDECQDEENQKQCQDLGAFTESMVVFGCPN
measurement_kind: log10 of EC50 hC3 cleavage (log10 of the value in nM)

[[record]]
binder = "MTSP-1 protease domain I41G/F97E/F99L/C122S/Q192A (enzyme) VVGGTDADEGEWPWQVSLHALGQGHGCGASLISPNWLVSAAHCYIDDRGFRYSDPTQWTAFLGLHDQSQRSAPGVQERRLKRIISHPFFNDETLDYDIALLELEKPAEYSSMVRPISLPDASHVFPAGKAIWVTGWGHTQYGGTGALILQKGEIRVINQTTCENLLPQQITPRMMCVGFLSGGVDSCAGDSGGPLSSVEADGRIFQAGVVSWGDGCAQRNKPGVYTRLPLFRDWIKENTGV"
measurement_kind = "log10 of EC50 hC3 cleavage"
assay_result = 1.48

[[record]]
binder = "MTSP-1 protease domain I41T/F97L/F99L/C122S/G151N/Q175S/Q192S/D217W (enzyme) VVGGTDADEGEWPWQVSLHALGQGHTCGASLISPNWLVSAAHCYIDDRGFRYSDPTQWTAFLGLHDQSQRSAPGVQERRLKRIISHPFFNDLTLDYDIALLELEKPAEYSSMVRPISLPDASHVFPAGKAIWVTGWGHTQYGGTNALILQKGEIRVINQTTCENLLPQSITPRMMCVGFLSGGVDSCSGDSGGPLSSVEADGRIFQAGVVSWGWGCAQRNKPGVYTRLPLFRDWIKENTGV"
measurement_kind = "log10 of EC50 hC3 cleavage"
assay_result = 1.38

[[record]]
binder = "MTSP-1 protease domain I41G/F97L/F99L/C122S/G151T/Q175M/Q192D/D217M (enzyme) VVGGTDADEGEWPWQVSLHALGQGHGCGASLISPNWLVSAAHCYIDDRGFRYSDPTQWTAFLGLHDQSQRSAPGVQERRLKRIISHPFFNDLTLDYDIALLELEKPAEYSSMVRPISLPDASHVFPAGKAIWVTGWGHTQYGGTTALILQKGEIRVINQTTCENLLPQMITPRMMCVGFLSGGVDSCDGDSGGPLSSVEADGRIFQAGVVSWGMGCAQRNKPGVYTRLPLFRDWIKENTGV"
measurement_kind = "log10 of EC50 hC3 cleavage"
assay_result = 1.57

[[record]]
binder = "MTSP-1 protease domain Q38H/I41S/D60bT/F60eS/Y60gW/D96I/F97N/T98G/F99L/C122S/G151N/Q175L/Q192D (enzyme) VVGGTDADEGEWPWQVSLHALGHGHSCGASLISPNWLVSAAHCYIDTRGSRWSDPTQWTAFLGLHDQSQRSAPGVQERRLKRIISHPFFNINGLDYDIALLELEKPAEYSSMVRPISLPDASHVFPAGKAIWVTGWGHTQYGGTNALILQKGEIRVINQTTCENLLPQLITPRMMCVGFLSGGVDSCDGDSGGPLSSVEADGRIFQAGVVSWGDGCAQRNKPGVYTRLPLFRDWIKENTGV"
measurement_kind = "log10 of EC50 hC3 cleavage"
assay_result = 0.48

[[record]]
binder = "MTSP-1 protease domain I41S/ins97aV/C122S/Q192V/D217V (enzyme) VVGGTDADEGEWPWQVSLHALGQGHSCGASLISPNWLVSAAHCYIDDRGFRYSDPTQWTAFLGLHDQSQRSAPGVQERRLKRIISHPFFNDFVTFDYDIALLELEKPAEYSSMVRPISLPDASHVFPAGKAIWVTGWGHTQYGGTGALILQKGEIRVINQTTCENLLPQQITPRMMCVGFLSGGVDSCVGDSGGPLSSVEADGRIFQAGVVSWGVGCAQRNKPGVYTRLPLFRDWIKENTGV"
measurement_kind = "log10 of EC50 hC3 cleavage"
assay_result = 1.04

